- Tested on: C. parapsilosis ATCC 22019
- Assay info: Anti-Fungal (Candida) Activity Assay, broth microtiter MIC
- Format: cell-based
- Settings: Lodderomyces parapsilosis, ATCC22019; 3 replicates, MIC recorded at 48 h; read-out: MIC C. parapsilosis ATCC 22019
Measurement kind: MIC

                                   compound       data_value
0  COc1ccccc1[C@H](Cn1c(=O)n(C(C)(C)C(=O)O)c(=O)c2c(C)c(-n3cccn3)sc21)O[C@H]1CC[C@@H](O)CC1 [Compound I-72]      > 4.1 µg/mL
1  COc1ccc(F)cc1[C@H](Cn1c(=O)n(CC(=O)N2CCCC2)c(=O)c2c(C)c(-n3cccn3)sc21)OC(C)C [Compound I-28]  0.25 to 1 µg/mL
2  COc1ccc(F)cc1[C@H](Cn1c(=O)n(C(C)(C)C(=O)N2CCOCC2)c(=O)c2c(C)c(-n3cccn3)sc21)OC(C)C [Compound I-3]      > 4.1 µg/mL

Consider now this further compound.
# value lookup — system C. parapsilosis ATCC 22019, readout MIC, item COCCCO[C@@H](Cn1c(=O)n(C(C)C(=O)N2CCCC2)c(=O)c2c(C)c(-n3cccn3)sc21)c1cc(F)ccc1OC (stereo partly shown) [Compound I-70] > 4.1 µg/mL

* * *

pIC50: −log10 of the molar value.
The reader will find pIC50 measurements below, all made with human (hACC2) ACC2 (Homo sapiens).

Solved entries (count: 5):
>>> print(df.to_string())
                                   compound    data_value
0  COc1ccccc1[C@H](Cn1c(=O)n(C(C)(C)C(N)=O)c(=O)c2c(C)c(-n3cccn3)sc21)OCCC#N  7.40 to 8.00
1  COc1ccc(F)cc1[C@@H](O)Cn1c(=O)n(C(C)(C)C(=O)O)c(=O)c2c(C)c(-n3cccn3)sc21  7.40 to 8.00
2  COc1ccc(F)cc1[C@H](Cn1c(=O)n(C(C)(C)C(=O)NC(C)C)c(=O)c2c(C)c(-n3cccn3)sc21)OC(C)C.I  7.40 to 8.00
3  COCCO[C@@H](Cn1c(=O)n(C(C)C(N)=O)c(=O)c2c(C)c(-n3cccn3)sc21)c1cc(F)ccc1OC (stereo partly drawn)        < 7.40
4  COCCO[C@@H](Cn1c(=O)n(C(C)C(=O)NC(C)C)c(=O)c2c(C)c(-n3cccn3)sc21)c1cc(F)ccc1OC (stereo partly drawn)  8.00 to 8.52

I'd like to know its pIC50. The compound in question is COc1ccc(F)cc1[C@H](Cn1c(=O)n(C(C)(C)C(=O)N2CCCC2)c(=O)c2c(C)c(-n3cccn3)sc21)OCCO 8.00 to 8.52

* * *

Task for the reader: assign each of the following compounds its reported IC50.
- Subject of test: human (hACC2) ACC2 (Homo sapiens, UniProt O00763)
- Sequence (O00763 whole entry): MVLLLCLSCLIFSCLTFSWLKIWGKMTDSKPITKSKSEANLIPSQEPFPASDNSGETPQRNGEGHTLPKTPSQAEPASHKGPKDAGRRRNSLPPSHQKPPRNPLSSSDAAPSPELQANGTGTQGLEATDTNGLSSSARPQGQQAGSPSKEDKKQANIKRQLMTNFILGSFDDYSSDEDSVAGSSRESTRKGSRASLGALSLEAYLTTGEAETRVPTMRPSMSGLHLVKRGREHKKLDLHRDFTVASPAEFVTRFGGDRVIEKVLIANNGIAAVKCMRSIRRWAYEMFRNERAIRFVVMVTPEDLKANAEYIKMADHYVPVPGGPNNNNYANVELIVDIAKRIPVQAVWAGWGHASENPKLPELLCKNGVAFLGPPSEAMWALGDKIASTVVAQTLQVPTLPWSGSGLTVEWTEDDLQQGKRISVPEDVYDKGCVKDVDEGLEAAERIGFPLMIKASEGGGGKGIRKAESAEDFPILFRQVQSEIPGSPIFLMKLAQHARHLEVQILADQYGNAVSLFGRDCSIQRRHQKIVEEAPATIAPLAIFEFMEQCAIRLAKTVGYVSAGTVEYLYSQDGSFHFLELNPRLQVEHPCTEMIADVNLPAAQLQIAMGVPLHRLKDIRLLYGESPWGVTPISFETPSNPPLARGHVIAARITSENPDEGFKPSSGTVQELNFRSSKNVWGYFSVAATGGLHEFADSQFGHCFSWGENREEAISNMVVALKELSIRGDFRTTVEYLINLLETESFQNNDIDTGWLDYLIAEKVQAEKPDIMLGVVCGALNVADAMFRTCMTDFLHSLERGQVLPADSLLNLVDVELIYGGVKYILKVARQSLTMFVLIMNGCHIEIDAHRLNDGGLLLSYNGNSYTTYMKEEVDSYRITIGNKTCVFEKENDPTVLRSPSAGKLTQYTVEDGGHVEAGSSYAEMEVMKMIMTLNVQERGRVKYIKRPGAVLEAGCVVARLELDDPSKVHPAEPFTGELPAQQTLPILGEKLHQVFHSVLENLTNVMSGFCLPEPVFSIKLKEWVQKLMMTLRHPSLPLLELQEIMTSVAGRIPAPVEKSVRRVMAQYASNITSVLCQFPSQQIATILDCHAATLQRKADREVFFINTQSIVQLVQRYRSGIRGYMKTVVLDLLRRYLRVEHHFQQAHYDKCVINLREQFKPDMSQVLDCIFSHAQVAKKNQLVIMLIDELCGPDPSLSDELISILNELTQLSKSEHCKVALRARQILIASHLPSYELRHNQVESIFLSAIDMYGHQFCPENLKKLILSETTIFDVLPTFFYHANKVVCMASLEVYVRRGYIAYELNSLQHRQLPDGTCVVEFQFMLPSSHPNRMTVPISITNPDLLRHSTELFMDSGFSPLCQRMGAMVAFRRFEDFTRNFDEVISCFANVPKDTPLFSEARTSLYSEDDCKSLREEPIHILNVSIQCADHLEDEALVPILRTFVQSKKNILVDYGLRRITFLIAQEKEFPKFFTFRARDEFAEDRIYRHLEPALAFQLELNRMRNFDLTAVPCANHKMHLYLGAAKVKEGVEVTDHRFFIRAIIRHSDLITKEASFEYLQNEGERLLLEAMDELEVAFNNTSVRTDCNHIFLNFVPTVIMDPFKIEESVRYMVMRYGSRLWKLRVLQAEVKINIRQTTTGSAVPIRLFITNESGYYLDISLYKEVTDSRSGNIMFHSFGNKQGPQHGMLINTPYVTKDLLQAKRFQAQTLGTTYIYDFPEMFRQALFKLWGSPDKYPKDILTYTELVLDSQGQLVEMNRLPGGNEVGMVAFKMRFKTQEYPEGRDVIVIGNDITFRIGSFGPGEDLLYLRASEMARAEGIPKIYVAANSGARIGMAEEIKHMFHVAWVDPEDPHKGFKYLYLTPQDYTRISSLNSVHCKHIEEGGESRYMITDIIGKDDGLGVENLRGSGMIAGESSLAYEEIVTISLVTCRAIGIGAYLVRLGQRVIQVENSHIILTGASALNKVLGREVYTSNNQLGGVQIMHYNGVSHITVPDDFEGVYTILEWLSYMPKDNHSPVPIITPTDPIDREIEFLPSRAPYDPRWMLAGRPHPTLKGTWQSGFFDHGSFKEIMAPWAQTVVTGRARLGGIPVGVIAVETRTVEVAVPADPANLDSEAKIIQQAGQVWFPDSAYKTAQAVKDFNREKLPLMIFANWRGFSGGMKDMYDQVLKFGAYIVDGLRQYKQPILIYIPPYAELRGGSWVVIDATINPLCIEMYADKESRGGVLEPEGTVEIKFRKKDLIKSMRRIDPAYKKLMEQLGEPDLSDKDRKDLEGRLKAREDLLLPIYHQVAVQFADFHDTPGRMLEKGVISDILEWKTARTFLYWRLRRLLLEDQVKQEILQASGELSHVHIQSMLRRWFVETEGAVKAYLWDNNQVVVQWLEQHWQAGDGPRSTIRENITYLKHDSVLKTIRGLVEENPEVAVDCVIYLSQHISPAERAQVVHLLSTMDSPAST
- Assay info: In vitro Acetyl-CoA Carboxylase (ACC) inhibition assay (ADP-Glo), hACC2
- Format: biochemical

These recorded examples may help you get a feel for the data.
                         compound_structure                           subject_of_test   data_value
0  Cc1c(-n2cccn2)sc2c1c(=O)n(C(C)(C)C(=O)N1CCCC1)c(=O)n2C[C@H](OC1CCOCC1)c1cc(F)ccc1OCC1COC1  human (hACC2) ACC2 (Homo sapiens, UniProt O00763)   3 to 10 nM
1  COCCO[C@@H](Cn1c(=O)n(C(C)(C)C(=O)NC2CCC2)c(=O)c2c(C)c(-n3cccn3)sc21)c1cc(F)ccc1OC  human (hACC2) ACC2 (Homo sapiens, UniProt O00763)  10 to 40 nM
2  COc1ccc(F)cc1[C@H](Cn1c(=O)n(C(C)(C)C(=O)O)c(=O)c2c(C)c(-n3cccn3)sc21)OCCC#N  human (hACC2) ACC2 (Homo sapiens, UniProt O00763)  10 to 40 nM
3  COc1ccc(F)cc1[C@H](Cn1c(=O)n(C(C)(C)C(=O)N2CC=CC2)c(=O)c2c(C)c(-n3cccn3)sc21)OC1CCOCC1  human (hACC2) ACC2 (Homo sapiens, UniProt O00763)  10 to 40 nM
4  COc1ccc(F)cc1[C@H](Cn1c(=O)n(C(C)(C)C(=O)N2CCOCC2)c(=O)c2c(C)c(-n3cccn3)sc21)OC(C)C  human (hACC2) ACC2 (Homo sapiens, UniProt O00763)  10 to 40 nM
5  COc1ccc(F)cc1[C@H](Cn1c(=O)n(C(C)(C)C(=O)N2CCCC2)c(=O)c2c(C)c(-n3cccn3)sc21)OC1CCC(=O)CC1  human (hACC2) ACC2 (Homo sapiens, UniProt O00763)  10 to 40 nM
6  COc1ccc(F)cc1[C@H](Cn1c(=O)n(C(C)(C)C(=O)N2CCCCC2)c(=O)c2c(C)c(-n3cccn3)sc21)OC1CCOCC1  human (hACC2) ACC2 (Homo sapiens, UniProt O00763)  10 to 40 nM

# get_value(readout='IC50', item= CCO[C@@H](Cn1c(=O)n(C(C)(C)C(=O)N2CCCC2)c(=O)c2c(C)c(-n3cccn3)sc21)c1cc(F)ccc1OC ) 10 to 40 nM

* * *

- Subject of test: UniProt O00763
pIC50: −log10 of the molar value.
Answer each item with its documented pIC50.

Go through the items and report each one's pIC50.
1. COc1ccc(F)cc1[C@H](Cn1c(=O)n(C(C)(C)C(N)=O)c(=O)c2c(C)c(-n3cccn3)sc21)OC1CCC(=O)CC1
2. COc1ccc(F)cc1[C@H](Cn1c(=O)n(C(C)(C)C(=O)N2CCCC2)c(=O)c2c(C)c(-n3cccn3)sc21)OCCC#N
3. COc1ccc(F)cc1[C@H](Cn1c(=O)n(CC(=O)N2CCCC2)c(=O)c2c(C)c(-n3cccn3)sc21)OC(C)C

1: 8.00 to 8.52; 2: 8.00 to 8.52; 3: 7.40 to 8.00

* * *

- System: Rhizoctonia solani (Rs)
- Assay info: Growth inhibition assay of fungal pathogens
- Type: cell-based
- Settings: 48 h, Table 4a, read-out: Concentration at 90% Inhibition Rs
- Protocol: Compounds of the present invention were evaluated in a growth inhibition assay to determine the ability to control the growth of fungal pathogens, such as Botrtyis cinerea (Bc), Collectotrichum graminicola (Cg). […] Once the compound was added, a true final concentration of compound in each well was measured by an OD600 reading, which adjusted for any compound precipitation that might have occurred in the well. Plate readings were repeated at both 24 and 48 hours. […]
Answer each item with its documented IC90.
One number for each entry, in µg/mL.

Below are worked cases with known answers.
>>> df
                                   molecule          subject_of_test  reading_unit  data_value
0  COc1ccc(F)cc1[C@H](Cn1c(=O)n(C(C)(C)C(=O)N2CCCCC2)c(=O)c2c(C)c(-n3cccn3)sc21)OC(C)C  Rhizoctonia solani (Rs)         µg/mL         0.4
1  COc1ccc(F)cc1[C@H](Cn1c(=O)n(C(C)(C)C(=O)NC(C)C)c(=O)c2c(C)c(-n3cccn3)sc21)OC[C@@H](C)O  Rhizoctonia solani (Rs)         µg/mL         0.4
2  COc1ccccc1[C@H](Cn1c(=O)n(C(C)(C)C(=O)NC(C)C)c(=O)c2c(C)c(-n3cccn3)sc21)OCC(C)C  Rhizoctonia solani (Rs)         µg/mL           2

State the recorded IC90 for every item in the following list.
1. COc1ccc(F)cc1[C@H](Cn1c(=O)n(C(C)C(=O)N2CCCC2)c(=O)c2c(C)c(-n3cccn3)sc21)OC(C)C (some centres unmarked)
2. COc1ccc(F)cc1[C@H](Cn1c(=O)n(C(C)(C)C(=O)N2CCCC2)c(=O)c2c(C)c(-n3cccn3)sc21)OC[C@H](C)O
3. COc1ccccc1[C@H](Cn1c(=O)n(C(C)(C)C(=O)N2CCCC2)c(=O)c2c(C)c(-n3cccn3)sc21)OC(C)C
4. COc1ccccc1[C@H](Cn1c(=O)n(C(C)(C)C(=O)N2CCCCC2)c(=O)c2c(C)c(-n3cccn3)sc21)OC(C)C
5. COc1ccccc1[C@H](Cn1c(=O)n(C(C)(C)C(=O)N2CCCC2)c(=O)c2c(C)c(-n3cccn3)sc21)OCC(C)C

1. 2
2. 10
3. 0.4
4. 2
5. 2

* * *

For each record, write down the corresponding IC90.
- Tested on: Botrtyis cinerea (Bc)
- Assay info: Growth inhibition assay of fungal pathogens
- Format: cell-based
- Settings: 48 h, Table 4b, read-out: Concentration at 90% Inhibition Bc
- Procedure: Compounds of the present invention were evaluated in a growth inhibition assay to determine the ability to control the growth of fungal pathogens, such as Botrtyis cinerea (Bc), Collectotrichum graminicola (Cg). […] Once the compound was added, a true final concentration of compound in each well was measured by an OD600 reading, which adjusted for any compound precipitation that might have occurred in the well. Plate readings were repeated at both 24 and 48 hours. […]

Some compounds with known IC90 results, for comparison:
>>> print(df.to_string())
                         compound_structure  measurement_kind  data_value
0  COc1ccccc1[C@H](Cn1c(=O)n(C(C)(C)C(N)=O)c(=O)c2c(C)c(-n3cccn3)sc21)OC1CCOCC1              IC90  > 50 µg/mL
1  COc1ccc(F)cc1[C@@H](O)Cn1c(=O)n(C(C)(C)C(=O)O)c(=O)c2c(C)c(-n3cccn3)sc21              IC90  > 50 µg/mL

Proceed to the following item.
Requested field: IC90. Item: COc1ccc(F)cc1[C@H](Cn1c(=O)n(C(C)(C)C(=O)N2CC(O)C2)c(=O)c2c(C)c(-n3cccn3)sc21)OC1CCOCC1 > 50 µg/mL

meta.source: patent US10941158B2
